ASSAY INFO: chemical genetic growth profiling, strain panel (AID 1159580);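 further: tested at 20 µM; growth read once vehicle control cultures reached saturation at 30 °C; 1 = growth at the plate median or of vehicle wells; lower values mean less growth of the strain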
PARTICULARS: S. cerevisiae deletion strains, growth OD, strain wtn01, active compounds read low
About 2,000 (36%) of roughly 5,500 compounds were called active. Inconclusive results (about 18%) are left out. The list shows a part of the results.
READOUT: normalized growth
Lab note: write the figure by itself, no unit.

Enquiry: Bench note: what normalized growth did C[C@@H]1CC2C3C[C@H](F)C4=CC(=O)C=C[C@]4(C)[C@@]3(F)[C@@H](O)C[C@]2(C)[C@@]1(O)C(=O)COC(=O)C(C)(C)C (some centres not stated) show?
Return: 1

Enquiry: Bench note: what normalized growth did Cc1nc2sccn2c(=O)c1CCN1CCC(=C(c2ccc(F)cc2)c2ccc(F)cc2)CC1 show?
Return: 0.776

Enquiry: Bench note: what normalized growth did O=c1cc(-c2ccccc2)oc2c(O)c(O)ccc12 show?
Return: 0.903

Enquiry: Bench note: what normalized growth did CC(CN1c2ccccc2Sc2cccnc21)N(C)C (configuration not stated) show?
Return: 1.01

Enquiry: Bench note: what normalized growth did COc1cc2c(cc1-c1cc3cc4ccoc4cc3oc1=O)OCO2 show?
Return: 0.972

Enquiry: Bench note: what normalized growth did O=c1cc(-c2cc(O)c(O)c(O)c2)oc2cc(O)cc(O)c12 show?
Return: 1

Enquiry: Bench note: what normalized growth did CCC(=O)c1ccc2c(c1)N(CC(C)N(C)C)c1ccccc1S2 (configuration not stated) show?
Return: 0.99

Enquiry: Bench note: what normalized growth did CCN(CC)C(C)CN1c2ccccc2Sc2ccccc21 (configuration not stated) show?
Return: 0.957

Enquiry: Bench note: what normalized growth did O=c1[nH]cnc2[nH]ncc12 show?
Return: 1

Enquiry: Bench note: what normalized growth did CNCCCN1c2ccccc2CCc2ccccc21 show?
Return: 0.985

Enquiry: Bench note: what normalized growth did CC(CN(C)C)CN1c2ccccc2CCc2ccccc21 (configuration not stated) show?
Return: 1.02

Enquiry: Bench note: what normalized growth did CCCC(CCC)C(=O)O show?
Return: 0.954

Enquiry: Bench note: what normalized growth did CC(CN1c2ccccc2Sc2ccccc21)N(C)C (configuration not stated) show?
Return: 0.957

Enquiry: Bench note: what normalized growth did CC(CN(C)C)CN1c2ccccc2Sc2ccccc21 (configuration not stated) show?
Return: 0.968

Enquiry: Bench note: what normalized growth did COc1cc(S(C)=O)ccc1-c1nc2ncccc2[nH]1 (configuration not stated) show?
Return: 0.975

Enquiry: Bench note: what normalized growth did O=c1cc(-c2ccccc2)oc2cc(O)cc(O)c12 show?
Return: 0.912

Enquiry: Bench note: what normalized growth did Cc1cc(=O)oc2c(O)c(O)ccc12 show?
Return: 0.997

Enquiry: Bench note: what normalized growth did CC1CC2C3CC(F)C4=CC(=O)C=CC4(C)C3(F)C(O)CC2(C)C1C(=O)COC(=O)C(C)(C)C (configuration not stated) show?
Return: 0.983

Enquiry: Bench note: what normalized growth did CN[C@@H]1[C@H](OC2[C@H](O[C@H]3[C@H](O)[C@@H](O)[C@H](N=C(N)N)[C@@H](O)[C@@H]3N=C(N)N)O[C@@H](C)[C@]2(O)C=O)O[C@@H](CO)[C@H](O)[C@H]1O (some centres not stated) show?
Return: 1.01

Enquiry: Bench note: what normalized growth did CNC(=O)Oc1ccc2c(c1)[C@]1(C)CCN(C)[C@@H]1N2C show?
Return: 1.01

Enquiry: Bench note: what normalized growth did CC1(C)C(=O)C=C[C@@]2(C)C1CC(=O)[C@@]1(C)C3=CC(=O)O[C@@H](c4ccoc4)[C@]3(C)CCC12 (some centres not stated) show?
Return: 0.992

Enquiry: Bench note: what normalized growth did CN(C)CCC(c1ccc(Br)cc1)c1ccccn1 (configuration not stated) show?
Return: 0.95
